Where do these numbers come from? They come from patent US4987129A.

The entries below come with measured MIC values attached.
# Test system: Citrobacter freundii GN7391
# test description: minimum inhibitory concentration (MIC)
# Format: cell-based
# condition info: Citrobacter freundii GN7391; Tables 2A, 2B; read-out: MIC
quantity name: MIC (µg/mL)

[
  {
    "compound": "Cc1cc(SCC2=C(C(=O)O)N3C(=O)C(NC(=O)C(=NOC(C)(C)C(=O)NNC(=O)c4ccc(O)c(O)c4)c4csc(N)n4)C3SC2)n2nc(CO)nc2n1 (stereo not drawn)",
    "unit annotation": "µg/mL",
    "observed": 12.5
  },
  {
    "compound": "COCc1nc2nc(C)cc(SCC3=C(C(=O)O)N4C(=O)C(NC(=O)C(=NOC)c5csc(N)n5)C4SC3)n2n1 (stereo not drawn)",
    "unit annotation": "µg/mL",
    "observed": 50
  },
  {
    "compound": "CC(C)(ON=C(C(=O)NC1C(=O)N2C(C(=O)O)=C(CSc3cc(C(=O)O)nc4nc(CO)nn34)CSC12)c1csc(N)n1)C(=O)NNC(=O)c1ccc(O)c(O)c1 (stereo not drawn)",
    "unit annotation": "µg/mL",
    "observed": 1.56
  }
]

* * *

# Test system: Citrobacter freundii GN7391
# test description: minimum inhibitory concentration (MIC)
# Type: cell-based
# condition info: Citrobacter freundii GN7391; Tables 2A, 2B; read-out: MIC
The entries below come with measured MIC values attached.

[
  {
    "compound": "COCc1nc2nc(C)cc(SCC3=C(C(=O)O)N4C(=O)C(NC(=O)C(=NOC(C)(C)C(=O)NNC(=O)c5ccc(O)c(O)c5)c5csc(N)n5)C4SC3)n2n1 (stereo not shown)",
    "tested target": "Citrobacter freundii GN7391",
    "limit operator": "=",
    "MIC, µg/mL": 12.5
  },
  {
    "compound": "Cc1cc(SCC2=C(C(=O)O)N3C(=O)C(NC(=O)C(=NOC(C)(C)C(=O)O)c4csc(N)n4)[C@H]3SC2)n2nc(CO)nc2n1 (stereo partly shown)",
    "tested target": "Citrobacter freundii GN7391",
    "limit operator": ">",
    "MIC, µg/mL": 100
  },
  {
    "compound": "CON=C(C(=O)NC1C(=O)N2C(C(=O)O)=C(CSc3cc(C)nc4nc(CO)nn34)CSC12)c1csc(N)n1 (stereo not shown)",
    "tested target": "Citrobacter freundii GN7391",
    "limit operator": "=",
    "MIC, µg/mL": 50
  },
  {
    "compound": "COCc1nc2nc(C)cc(SCC3=C(C(=O)O)N4C(=O)C(NC(=O)C(=NOC(C)(C)C(=O)NN)c5csc(N)n5)C4SC3)n2n1 (stereo not shown)",
    "tested target": "Citrobacter freundii GN7391",
    "limit operator": ">",
    "MIC, µg/mL": 100
  },
  {
    "compound": "CON=C(C(=O)NC1C(=O)N2C(C(=O)O)=C(CSc3cc(C(=O)O)nc4nc(CO)nn34)CSC12)c1csc(N)n1 (stereo not shown)",
    "tested target": "Citrobacter freundii GN7391",
    "limit operator": "=",
    "MIC, µg/mL": 100
  },
  {
    "compound": "CON=C(C(=O)NC1C(=O)N2C(C(=O)O)=C(CSc3cc(CO)nc4nc(C)nn34)CSC12)c1csc(N)n1 (stereo not shown)",
    "tested target": "Citrobacter freundii GN7391",
    "limit operator": "=",
    "MIC, µg/mL": 25
  },
  {
    "compound": "Cc1cc(SCC2=C(C(=O)O)N3C(=O)C(NC(=O)C(=NOC(C)(C)C(=O)NN)c4csc(N)n4)C3SC2)n2nc(CO)nc2n1 (stereo not shown)",
    "tested target": "Citrobacter freundii GN7391",
    "limit operator": "=",
    "MIC, µg/mL": 100
  }
]

* * *

# Tested on: Serratia marcescens GN10857
API: label(entry) gives criterion met if the entry's MIC is strictly smaller than 10 µg/mL; on equality or larger values it gives criterion not met.

[
  {
    "compound": "CON=C(C(=O)NC1C(=O)N2C(C(=O)O)=C(CSc3cc(C)nc4nc(CO)nn34)CSC12)c1csc(N)n1 (stereo not drawn) [Example 17]",
    "tested target": "Serratia marcescens GN10857",
    "label": "criterion not met"
  },
  {
    "compound": "COCc1nc2nc(C)cc(SCC3=C(C(=O)O)N4C(=O)C(NC(=O)C(=NOC)c5csc(N)n5)C4SC3)n2n1 (stereo not drawn) [Example 26]",
    "tested target": "Serratia marcescens GN10857",
    "label": "criterion not met"
  },
  {
    "compound": "Cc1cc(SCC2=C(C(=O)O)N3C(=O)C(NC(=O)C(=NOC(C)(C)C(=O)NNC(=O)c4ccc(O)c(O)c4)c4csc(N)n4)C3SC2)n2nc(CO)nc2n1 (stereo not drawn) [Example 18]",
    "tested target": "Serratia marcescens GN10857",
    "label": "criterion met"
  },
  {
    "compound": "CC(C)(O/N=C(\\C(=O)N[C@@H]1C(=O)N2C(C(=O)[O-])=C(C[n+]3ccccc3)CS[C@H]12)c1csc(N)n1)C(=O)O [CAZ, ceftazidime, reference compound]",
    "tested target": "Serratia marcescens GN10857",
    "label": "criterion met"
  },
  {
    "compound": "COCc1nc2nc(C)cc(SCC3=C(C(=O)O)N4C(=O)C(NC(=O)C(=NOC(C)(C)C(=O)NN)c5csc(N)n5)C4SC3)n2n1 (stereo not drawn) [Example 47]",
    "tested target": "Serratia marcescens GN10857",
    "label": "criterion not met"
  },
  {
    "compound": "Cc1cc(SCC2=C(C(=O)[O-])N3C(=O)C(NC(=O)C(=NOC(C)(C)C(=O)NN=Cc4ccc(O)c(O)c4)c4csc(N)n4)[C@H]3SC2)n2nc(CO)nc2n1.[Na+] (stereo partly drawn) [Example 44]",
    "tested target": "Serratia marcescens GN10857",
    "label": "criterion met"
  }
]

* * *

The entries below come with measured MIC values attached.
# Tested on: Escherichia coli GN5482
# test description: minimum inhibitory concentration (MIC)
# Type: cell-based
# condition info: Tables 2A, 2B

[
  {
    "molecule": "Cc1cc(SCC2=C(C(=O)O)N3C(=O)C(NC(=O)C(=NOC(C)(C)C(=O)O)c4csc(N)n4)[C@H]3SC2)n2nc(CO)nc2n1 (some centres unmarked) [Example 20]",
    "unit annotation": "µg/mL",
    "MIC": 0.78
  },
  {
    "molecule": "Cc1cc(SCC2=C(C(=O)O)N3C(=O)C(NC(=O)C(=NOC(C)(C)C(=O)NNC(=O)c4ccc(O)c(O)c4)c4csc(N)n4)C3SC2)n2nc(CO)nc2n1 (centres unmarked) [Example 18]",
    "unit annotation": "µg/mL",
    "MIC": 0.025
  },
  {
    "molecule": "CON=C(C(=O)NC1C(=O)N2C(C(=O)O)=C(CSc3cc(C)nc4nc(CO)nn34)CSC12)c1csc(N)n1 (centres unmarked) [Example 17]",
    "unit annotation": "µg/mL",
    "MIC": 0.1
  },
  {
    "molecule": "COCc1nc2nc(C)cc(SCC3=C(C(=O)O)N4C(=O)C(NC(=O)C(=NOC(C)(C)C(=O)NNC(=O)c5ccc(O)c(O)c5)c5csc(N)n5)C4SC3)n2n1 (centres unmarked) [Example 24]",
    "unit annotation": "µg/mL",
    "MIC": 0.025
  },
  {
    "molecule": "Cc1cc(SCC2=C(C(=O)O)N3C(=O)C(NC(=O)C(=NOC(C)(C)C(=O)NN)c4csc(N)n4)C3SC2)n2nc(CO)nc2n1 (centres unmarked) [Example 43]",
    "unit annotation": "µg/mL",
    "MIC": 0.39
  },
  {
    "molecule": "Cc1cc(SCC2=C(C(=O)[O-])N3C(=O)C(NC(=O)C(=NOC(C)(C)C(=O)NN=Cc4ccc(O)c(O)c4)c4csc(N)n4)[C@H]3SC2)n2nc(CO)nc2n1.[Na+] (some centres unmarked) [Example 44]",
    "unit annotation": "µg/mL",
    "MIC": 0.1
  },
  {
    "molecule": "CC(C)(ON=C(C(=O)NC1C(=O)N2C(C(=O)O)=C(CSc3cc(C(=O)O)nc4nc(CO)nn34)CSC12)c1csc(N)n1)C(=O)NNC(=O)c1ccc(O)c(O)c1 (centres unmarked) [Example 30]",
    "unit annotation": "µg/mL",
    "MIC": 0.05
  },
  {
    "molecule": "CC(C)(O/N=C(\\C(=O)N[C@@H]1C(=O)N2C(C(=O)[O-])=C(C[n+]3ccccc3)CS[C@H]12)c1csc(N)n1)C(=O)O [CAZ, ceftazidime, reference compound]",
    "unit annotation": "µg/mL",
    "MIC": 1.56
  },
  {
    "molecule": "CON=C(C(=O)NC1C(=O)N2C(C(=O)O)=C(CSc3cc(C(=O)O)nc4nc(CO)nn34)CSC12)c1csc(N)n1 (centres unmarked) [Example 31]",
    "unit annotation": "µg/mL",
    "MIC": 0.2
  },
  {
    "molecule": "Cc1nc2nc(CO)cc(SCC3=C(C(=O)[O-])N4C(=O)C(NC(=O)C(=NOC(C)(C)C(=O)NNC(=O)c5ccc(O)c(O)c5)c5csc(N)n5)[C@H]4SC3)n2n1.[Na+] (some centres unmarked) [Example 37]",
    "unit annotation": "µg/mL",
    "MIC": 0.05
  },
  {
    "molecule": "COCc1nc2nc(C)cc(SCC3=C(C(=O)O)N4C(=O)C(NC(=O)C(=NOC(C)(C)C(=O)NN)c5csc(N)n5)C4SC3)n2n1 (centres unmarked) [Example 47]",
    "unit annotation": "µg/mL",
    "MIC": 0.78
  },
  {
    "molecule": "CON=C(C(=O)NC1C(=O)N2C(C(=O)O)=C(CSc3cc(CO)nc4nc(C)nn34)CSC12)c1csc(N)n1 (centres unmarked) [Example 38]",
    "unit annotation": "µg/mL",
    "MIC": 0.1
  },
  {
    "molecule": "COCc1nc2nc(C)cc(SCC3=C(C(=O)O)N4C(=O)C(NC(=O)C(=NOC)c5csc(N)n5)C4SC3)n2n1 (centres unmarked) [Example 26]",
    "unit annotation": "µg/mL",
    "MIC": 0.39
  },
  {
    "molecule": "CC(C)(ON=C(C(=O)NC1C(=O)N2C(C(=O)[O-])=C(CSc3cc(CO)nc4nc(CO)nn34)CS[C@H]12)c1csc(N)n1)C(=O)NNC(=O)c1ccc(O)c(O)c1.[Na+] (some centres unmarked) [Example 42]",
    "unit annotation": "µg/mL",
    "MIC": 0.1
  }
]
